meta.source: ChEMBL document CHEMBL1125735

// reported Control per item
- tgt: D(2) dopamine receptor (Rattus norvegicus) (UniProt P61169)
- Sequence (P61169 whole entry): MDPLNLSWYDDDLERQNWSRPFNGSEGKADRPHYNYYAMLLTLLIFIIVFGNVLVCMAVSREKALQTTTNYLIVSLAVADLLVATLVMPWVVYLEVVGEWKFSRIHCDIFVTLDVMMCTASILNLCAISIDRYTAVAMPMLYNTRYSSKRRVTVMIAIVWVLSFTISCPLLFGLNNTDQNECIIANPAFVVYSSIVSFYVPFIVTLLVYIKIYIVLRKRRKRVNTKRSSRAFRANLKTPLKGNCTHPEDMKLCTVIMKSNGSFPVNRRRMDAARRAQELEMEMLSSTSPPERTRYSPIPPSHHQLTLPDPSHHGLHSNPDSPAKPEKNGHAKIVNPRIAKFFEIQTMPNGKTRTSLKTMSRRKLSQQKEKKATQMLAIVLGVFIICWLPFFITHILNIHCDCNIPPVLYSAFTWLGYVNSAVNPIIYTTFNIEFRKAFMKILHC
- method-notes: Percent of maximal inhibition by change of S2/S1 versus control at 1 uM for the acetylcholine (ACh) release as a model for Dopamine D2 receptor activation.
- Format: functional
- Design: scale not given: the % may be the effect or the level left
Give just the numeric value; % need not be written.

Previously resolved entries follow.
| smiles-notation | Control [%] |
| --- | --- |
| CCCN1Cc2ccccc2[C@H]2c3cccc4[nH]cc(c34)C[C@H]21 | 0 |
| CN1Cc2ccccc2[C@H]2c3cccc4[nH]cc(c34)C[C@H]21 | 0 |

Suppose we examine the molecule CCN1Cc2ccccc2[C@H]2c3cccc4[nH]cc(c34)C[C@H]21 ; what Control value has been reported?
0

Subsequent entry: c1ccc2c(c1)CN[C@@H]1Cc3c[nH]c4cccc(c34)[C@H]21
0
